Each entry below carries its recorded pKi.
system-tested: receptor 5-HT4(c) (Homo sapiens, UniProt Q13639)
Sequence (Q13639 1-380 isoform Q13639-4): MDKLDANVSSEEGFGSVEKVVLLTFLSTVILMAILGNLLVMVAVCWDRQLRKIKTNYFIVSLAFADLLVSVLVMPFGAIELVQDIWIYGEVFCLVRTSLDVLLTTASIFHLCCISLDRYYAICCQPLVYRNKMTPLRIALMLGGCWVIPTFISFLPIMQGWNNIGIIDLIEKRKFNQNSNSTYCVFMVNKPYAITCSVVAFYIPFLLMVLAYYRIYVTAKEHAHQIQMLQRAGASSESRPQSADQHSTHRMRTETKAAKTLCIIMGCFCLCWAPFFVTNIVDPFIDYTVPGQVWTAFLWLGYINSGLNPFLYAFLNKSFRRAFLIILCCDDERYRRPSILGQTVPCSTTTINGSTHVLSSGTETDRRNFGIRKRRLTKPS
assay: [3H]GR113808 radioligand binding, membranes of transiently transfected COS-7 cells
Parameters: The entire coding region of the cDNAs of 5-HT4(a), 5-HT4(b), 5-HT4(c) and 5-T4(d) was subcloned; expressed in transfected cells; host or cells: COS-7 cells, transient, pRC/CMV vector; cDNA amplified from human brain and ileum RNA
test-parameters: 5-HT4(c), COS-7 membranes, [3H]GR113808 at 50% of Kd; read-out: Ki, competition for [3H]GR113808 binding
Procedure: The entire coding region of the cDNAs of 5-HT4(a), 5-HT4(b), 5-HT4(c) and 5-T4(d) was subcloned into a mammalian expression vector pRC/CMV (Invitrogen, Carlsbad, Calif.). […] Each flask of cells intended for the radioligand binding assays was washed twice with a phosphate buffer (PBS). […] The protein concentrations were determined by the method of Lowry et al., 1951, using bovine serum albumin as standard. […]
Field pKi (float): negative decimal logarithm of the concentration in molar.

{"columns": ["molecule", "pKi"],
 "data": [
  ["Cn1cc(C(=O)OCC2CCN(CCNS(C)(=O)=O)CC2)c2ccccc21 [GR113808]", 9.39]
]}

Could you now consider this next molecule?
Tell me the measured pKi of COc1ccc2[nH]cc(CCN)c2c1 [5-MeOT, 5-methoxytryptamine] , please.
5.99

====

system-tested: receptor 5-HT4(a) (Homo sapiens, UniProt Q13639)
Construct: The entire coding region of the cDNAs of 5-HT4(a), 5-HT4(b), 5-HT4(c) and 5-T4(d) was subcloned; expressed in transfected cells; host or cells: COS-7 cells, transient, pRC/CMV vector
Sequence (Q13639 1-387 isoform Q13639-2): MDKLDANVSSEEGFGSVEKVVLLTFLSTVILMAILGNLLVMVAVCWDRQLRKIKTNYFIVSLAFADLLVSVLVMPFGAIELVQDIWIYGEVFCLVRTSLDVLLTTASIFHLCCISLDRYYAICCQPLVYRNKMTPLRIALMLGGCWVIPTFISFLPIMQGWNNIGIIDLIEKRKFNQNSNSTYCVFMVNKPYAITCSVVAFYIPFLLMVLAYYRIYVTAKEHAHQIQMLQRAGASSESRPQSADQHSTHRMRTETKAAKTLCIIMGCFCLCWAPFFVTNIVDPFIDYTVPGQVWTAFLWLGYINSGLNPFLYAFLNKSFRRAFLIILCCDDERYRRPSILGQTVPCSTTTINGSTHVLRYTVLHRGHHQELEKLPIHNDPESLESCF
assay: [3H]GR113808 radioligand binding, membranes of transiently transfected COS-7 cells
test-parameters: 5-HT4(a), COS-7 membranes, 30 minutes at 25° C.; read-out: Kd, saturation analysis
property-label: Kd (nM)
// note: answer is a bare numeric in nM

Tell me the measured Kd of Cn1cc(C(=O)OCC2CCN(CCNS(C)(=O)=O)CC2)c2ccccc21 [[^3H]GR113808] , please.
0.23

====

system-tested: receptor 5-HT4(d) (Homo sapiens, UniProt Q13639)
Sequence (Q13639 1-360 isoform Q13639-3): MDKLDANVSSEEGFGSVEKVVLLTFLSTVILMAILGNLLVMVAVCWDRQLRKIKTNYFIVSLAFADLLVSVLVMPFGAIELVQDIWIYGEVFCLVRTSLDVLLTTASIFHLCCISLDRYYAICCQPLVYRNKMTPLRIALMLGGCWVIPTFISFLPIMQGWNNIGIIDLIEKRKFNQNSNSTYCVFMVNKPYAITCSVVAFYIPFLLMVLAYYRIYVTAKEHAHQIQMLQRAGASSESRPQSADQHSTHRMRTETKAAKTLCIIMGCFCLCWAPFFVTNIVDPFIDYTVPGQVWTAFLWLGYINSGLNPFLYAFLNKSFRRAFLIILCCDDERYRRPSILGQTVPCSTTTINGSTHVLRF
assay: [3H]GR113808 saturation binding, membranes of stably transfected CHO cells
Design: The entire coding region of the cDNAs of 5-HT4(a), 5-HT4(b), 5-HT4(c) and 5-T4(d) was subcloned; expressed in transfected cells; pRC/CMV vector; cDNA amplified from human brain and ileum RNA
test-parameters: 30 minutes at 25° C., read-out: Kd, saturation analysis
property-label: Kd (nM)
// note: answer is a bare numeric in nM

Tell me the measured Kd of Cn1cc(C(=O)OCC2CCN(CCNS(C)(=O)=O)CC2)c2ccccc21 [[^3H]GR113808] , please.
0.23

====

System: “blank”-transfected COS-7 cells
assay: cAMP formation in control COS-7 cells
Assay type: cell-based
test-parameters: 1 μM
Counter-ions that a name gives are not always drawn.
property-label: effect on basal adenylate cyclase activity / basal cAMP levels

{"columns": ["compound", "observed-result"],
 "data": [
  ["COc1cc(N)c(Cl)cc1C(=O)OCCN1C[C@H](C)C[C@H](C)C1 [ML10375]", "no significant effect"],
  ["COc1cc(N)c(Cl)cc1C(=O)OCCN1CCCCC1 [ML10302]", "no significant effect"],
  ["COc1cc(N)c(Cl)cc1C(=O)NC1CCN2CCCC1C2 (single isomer, unassigned; (+)) [Renzapride, hydrochloride]", "no significant effect"]
]}

====

system-tested: receptor 5-HT4(a) (Homo sapiens)
Construct: The entire coding region of the cDNAs of 5-HT4(a), 5-HT4(b), 5-HT4(c) and 5-T4(d) was subcloned; expressed in transfected cells; host or cells: COS-7 cells, transient, pRC/CMV vector
assay: [3H]GR113808 radioligand binding, membranes of transiently transfected COS-7 cells
test-parameters: 5-HT4(a), COS-7 membranes, [3H]GR113808 at 50% of Kd; read-out: Ki, competition for [3H]GR113808 binding
Where a name gives a salt, the structure may show the parent alone.
property-label: pKi
Field pKi (float): negative decimal logarithm of the concentration in molar.

{"columns": ["compound", "pKi"],
 "data": [
  ["Cn1cc(C(=O)OCC2CCN(CCNS(C)(=O)=O)CC2)c2ccccc21", 9.48]
]}

Tell me the measured pKi of COc1cc(N)c(Cl)cc1C(=O)NC1CN2CCC1CC2 (stereo not drawn) [Zacopride, hydrochloride] , please.
5.11

Tell me the measured pKi of COc1ccc2[nH]cc(CCN)c2c1 , please.
5.68
